system: BT-549 breast; assay: NCI-60 one-dose screen, 48 h; settings: 10 µM unless noted
About 83,000 compounds went through this panel and 20% of them were active in at least one assay; those are over-represented in the sample as a whole. Active and inactive are the calls of the source. How the source made its calls: active means growth percent below 10; inactive means the rest.
Thanks in advance; please answer with one of these: active, inactive

Hi, sorry to bother you, what did the test record for Nc1nc2ccccc2c2c(=O)c3cc(F)ccc3sc12 ?
inactive

Hi, sorry to bother you, what did the test record for CCCCn1c(=O)c(-c2cc(-c3ccc(Cl)cc3)nc(-c3ccc(Cl)cc3)c2)cc2ccc(Cl)cc21 ?
inactive

Hi, sorry to bother you, what did the test record for O=C(N/N=C/c1c(Cl)cccc1Cl)c1ccc(C(F)(F)F)nc1Nc1cccc(C(F)(F)F)c1 ?
active

Hi, sorry to bother you, what did the test record for COc1cccc(Oc2ccccc2NC(=O)CNC(=O)c2cccc3ccccc23)c1 ?
inactive

Hi, sorry to bother you, what did the test record for COc1nc2ccccc2cc1-c1nc2c(cnn2-c2ccc(Br)cc2)c(=O)[nH]1 ?
inactive

Hi, sorry to bother you, what did the test record for Cc1cccc(NCc2cn(-c3ccc(C(=O)O)cc3)nc2-c2ccc(C(=O)O)cc2)n1 ?
inactive

Hi, sorry to bother you, what did the test record for CNCCCC12CCC(c3ccccc31)c1ccccc12 ?
inactive

Hi, sorry to bother you, what did the test record for O=c1cc(SCc2ccccc2)nc[nH]1 ?
inactive

Hi, sorry to bother you, what did the test record for COc1ccc(OC)c(/C=C2\Oc3cc(OCCN4CCC(Cc5ccccc5)CC4)ccc3C2=O)c1 ?
inactive

Hi, sorry to bother you, what did the test record for CCN(CC)CCCNc1nc2ccccc2c2c(=O)c3cc(Cl)ccc3sc12 ?
inactive

----------
system: A498 renal; assay: NCI-60 one-dose screen, 48 h (100 = growth as untreated, 0 = no growth, -100 = all killed); conditions: 10 µM unless noted
About 83,000 compounds went through this panel and 20% of them were active in at least one assay; those are over-represented in the sample as a whole. Activity calls are given as the source filed them. The calls were made as follows: active = growth percent below 10; inactive = the rest.
Exercise: for every item that follows, state its recorded growth.

// lookup growth | system=A498 renal | key= Nc1nc2ccccc2c2c(=O)c3cc(F)ccc3sc12
89.7% (inactive)

// lookup growth | system=A498 renal | key= N#CC1=C(N)Oc2c(sc3c(Br)cccc23)C1c1ccc(Br)cc1 (stereo not given)
23.9% (inactive)

// lookup growth | system=A498 renal | key= C=C1CC[C@@]2(C#N)[C@H]3[C@H](CC[C@@H]2C)[C@@H](C)C[C@@H](CC(C)(C)C#N)[C@H]13
51.1% (inactive)

// lookup growth | system=A498 renal | key= O=C1/C(=C/c2ccccc2[N+](=O)[O-])Oc2ccc(O)c(O)c21
65.7% (inactive)

// lookup growth | system=A498 renal | key= CCCCNC(=O)Oc1ccc(/C(=C(\C)c2ccc(Cl)cc2)c2ccc(OCCN3CCCCC3)cc2)cc1
85.2% (inactive)

// lookup growth | system=A498 renal | key= C=CCc1cc(C)ccc1NC(C(=O)NCC(=O)OC)c1ccccc1 (stereo not given)
94.6% (inactive)

// lookup growth | system=A498 renal | key= COc1ccc(OC)c(/C=C/c2nnc(Nc3ccccc3)o2)c1
73.7% (inactive)

// lookup growth | system=A498 renal | key= O=C(CS(=O)c1oc(-c2cccs2)nc1S(=O)(=O)c1ccc(Br)cc1)c1ccccc1 (stereo not given)
49.1% (inactive)

// lookup growth | system=A498 renal | key= COc1ccc([C@H]2c3cc(OC)c(OC)cc3C=C(C=O)C2CO)cc1OC (stereo not given in full)
104% (inactive)

// lookup growth | system=A498 renal | key= COc1cccc(-c2nc(-c3ccc(NC(=O)C(C)C)cc3)[nH]c2-c2ccnc(Br)c2)c1
2.23% (active)

// lookup growth | system=A498 renal | key= Cc1cccc2c(=O)c3c(sc12)c(NCc1ccccc1)nc1ccccc13
72.4% (inactive)

// lookup growth | system=A498 renal | key= C/C(=C\C(=O)c1ccc(Cl)cc1)c1ccc(Cl)cc1
104% (inactive)

// lookup growth | system=A498 renal | key= CCCSc1nc2ccc(C)cc2cc1/C=[N+](\[O-])c1ccccc1
74.6% (inactive)

// lookup growth | system=A498 renal | key= Oc1c(I)cc(I)cc1CNCCCN(Cc1ccccn1)Cc1ccccn1
-98.4% (active)

// lookup growth | system=A498 renal | key= Clc1ccc(C(/C=C/c2sc(Cl)nc2Cl)=N/Nc2cc(Cl)cc(Cl)c2)cc1
101% (inactive)

// lookup growth | system=A498 renal | key= CCCCC[C@H](O)C/C=C1/C(=O)C=C[C@@H]1C/C=C\CCCC(=O)OC
97.5% (inactive)

// lookup growth | system=A498 renal | key= Cc1ccc(-c2nc(N3CCN(CC(=O)Nc4ccc(Cl)c(C(F)(F)F)c4)CC3)c3ccccc3n2)cc1
74.6% (inactive)

// lookup growth | system=A498 renal | key= Nc1nc(Cl)cc(=O)n1Cc1ccccc1
99.4% (inactive)

// lookup growth | system=A498 renal | key= O=[N+]([O-])c1ccc(Cl)c(-c2cc(CCCCO)on2)c1
87.1% (inactive)

// lookup growth | system=A498 renal | key= COc1cc(/C=N/NC(=O)c2ccc(C)nc2)cc(OC)c1OC
93.2% (inactive)

// lookup growth | system=A498 renal | key= O=C(O)c1cn(C2CC2)c2cc(N3CCN(C(=O)Nc4nc(-c5ccc(Cl)cc5)cs4)CC3)c(F)cc2c1=O
-3.82% (active)

// lookup growth | system=A498 renal | key= CCc1cccc2c1S/C(=C/c1ccc(OC)cc1)C2=O
104% (inactive)

// lookup growth | system=A498 renal | key= O=C(/C=C/c1sc(Cl)nc1Cl)c1ccccc1
100% (inactive)

// lookup growth | system=A498 renal | key= O=C(Nc1ccc(OS(=O)(=O)c2ccc(F)cc2)cc1)c1ccc(Cl)cc1
82.9% (inactive)

// lookup growth | system=A498 renal | key= COc1ccc(-n2c(N)c(-c3nc4ccccc4[nH]3)cc(C#N)c2=O)cc1
64% (inactive)

// lookup growth | system=A498 renal | key= CNC(=O)c1cc(-n2ccc3cc(NC(=O)c4ccc(N5CCOCC5)c(C(F)(F)F)c4)ccc32)ccn1
25.9% (inactive)

// lookup growth | system=A498 renal | key= NCCOc1ncccc1/C=C1\c2ccccc2-c2ccc(C(F)F)cc21
47.5% (inactive)

// lookup growth | system=A498 renal | key= NC1=NC(c2cccc(Br)c2)c2sc3ccc(Cl)cc3c2N1 (stereo not given)
104% (inactive)

// lookup growth | system=A498 renal | key= COc1cc2cc(Oc3ccc(NC(=O)Nc4cc(C(F)(F)F)cc(C(F)(F)F)c4)cc3)c(C)nc2cc1OCCN1CCOCC1
40.7% (inactive)

// lookup growth | system=A498 renal | key= CSc1ccc2c(c1)c(CCN)c(C)n2Cc1ccc(Cl)c(Cl)c1
-91.8% (active)
